system: A498; experiment: minimum viability across doses, drug + dasatinib, relative to DMSO (fraction); higher = less growth inhibition; conditions: treatment: drug + dasatinib (fixed dose, not stated); 5 days
Please use TRUE for minimum viability across doses under 0.6 and FALSE for everything else, ties included.

COMPOUND	CLASSIFICATION
Cn1c(=O)n(-c2ccc(C(C)(C)C#N)cc2)c2c3cc(-c4cnc5ccccc5c4)ccc3ncc21 [BEZ235 (NVP-BEZ235)] + Cc1nc(Nc2ncc(C(=O)Nc3c(C)cccc3Cl)s2)cc(N2CCN(CCO)CC2)n1 [dasatinib]	TRUE
CNC(=O)CN1CCC(Oc2cc3c(Nc4cccc(Cl)c4F)ncnc3cc2OC)CC1 [AZD8931] + Cc1nc(Nc2ncc(C(=O)Nc3c(C)cccc3Cl)s2)cc(N2CCN(CCO)CC2)n1 [dasatinib]	TRUE
O=C1NC(=O)C(=Cc2ccc(-c3ccc(F)cc3)o2)S1 (stereo in doubt) + Cc1nc(Nc2ncc(C(=O)Nc3c(C)cccc3Cl)s2)cc(N2CCN(CCO)CC2)n1 [dasatinib]	FALSE
COCCOc1ccc2c(c1)ncn2-c1ccc2cccc(N3CCC(N)CC3)c2n1 + Cc1nc(Nc2ncc(C(=O)Nc3c(C)cccc3Cl)s2)cc(N2CCN(CCO)CC2)n1 [dasatinib]	TRUE
CN(C)Cc1cccc(N/C(=C2\C(=O)Nc3cc(C(=O)N(C)C)ccc32)c2ccccc2)c1 + Cc1nc(Nc2ncc(C(=O)Nc3c(C)cccc3Cl)s2)cc(N2CCN(CCO)CC2)n1 [dasatinib]	TRUE
COc1ccc2c(OCc3nnc4ccc(-c5ccccc5)nn34)ccnc2c1 [AMG-208] + Cc1nc(Nc2ncc(C(=O)Nc3c(C)cccc3Cl)s2)cc(N2CCN(CCO)CC2)n1 [dasatinib]	FALSE
Cc1cc2c(F)c(Oc3ncnn4cc(OC[C@@H](C)OC(=O)[C@H](C)N)c(C)c34)ccc2[nH]1 + Cc1nc(Nc2ncc(C(=O)Nc3c(C)cccc3Cl)s2)cc(N2CCN(CCO)CC2)n1 [dasatinib]	FALSE
Cn1cc(C2=C(c3cn(C4CCN(Cc5ccccn5)CC4)c4ccccc34)C(=O)NC2=O)c2ccccc21 + Cc1nc(Nc2ncc(C(=O)Nc3c(C)cccc3Cl)s2)cc(N2CCN(CCO)CC2)n1 [dasatinib]	FALSE

---

Listed next: entries and their corresponding GI50, drug alone.
tested on: ACHN; assay: GI50, drug alone; higher = less potent; conditions: treatment: drug alone; 5 days

COMPOUND	TESTED TARGET	READOUT RELATION	GI50, drug alone [nM]
Cl.Cl.Fc1cc(-c2cccc3ncc(-c4cnn(C5CCNCC5)c4)nc23)cc(F)c1CN1CCOCC1 [NVP-BSK805]	ACHN	=	1600
FC(F)(F)c1ccc(Nc2nc3cc(Oc4ccnc(-c5ncc(C(F)(F)F)[nH]5)c4)ccc3[nH]2)cc1 [Raf265 derivative]	ACHN	=	8480
COc1cc2c(Nc3ccc(Br)cc3F)ncnc2cc1OCC1CCN(C)CC1 [Vandetanib (Zactima)]	ACHN	=	1570
CC(C)(C)c1cc(NC(=O)Nc2ccc(-c3cn4c(n3)sc3cc(OCCN5CCOCC5)ccc34)cc2)no1 [Quizartinib (AC220)]	ACHN	=	3480
CNC(=O)c1ccccc1Sc1ccc2c(/C=C/c3ccccn3)n[nH]c2c1 [Axitinib]	ACHN	=	4700
O=C(Nc1cc(C(F)(F)F)cc(C(F)(F)F)c1)c1cc(Cl)ccc1O [IMD 0354]	ACHN	=	943
CCCS(=O)(=O)Nc1ccc(F)c(C(=O)c2c[nH]c3ncc(Cl)cc23)c1F [PLX-4720]	ACHN	=	2460
O=C1NC(=O)/C(=C/c2ccc3c(c2)OC(F)(F)O3)S1	ACHN	>	10000
COc1cc(N2CCC(N3CCN(C)CC3)CC2)ccc1Nc1ncc(Cl)c(Nc2ccccc2S(=O)(=O)C(C)C)n1 [TAE684 (NVP-TAE684)]	ACHN	=	1840
CO[C@H]1C[C@@H]2CC[C@@H](C)[C@@](O)(O2)C(=O)C(=O)N2CCCC[C@H]2C(=O)O[C@H]([C@H](C)C[C@@H]2CC[C@@H](OCCO)[C@H](OC)C2)CC(=O)[C@H](C)/C=C(\C)[C@@H](O)[C@@H](OC)C(=O)[C@H](C)C[C@H](C)/C=C/C=C/C=C/1C [Everolimus (RAD001)]	ACHN	=	278
CC[C@H](Nc1ncnc2[nH]cnc12)c1nc2cccc(F)c2c(=O)n1-c1ccccc1 [CAL-101 (GS-1101)]	ACHN	>	10000
C[C@]1(O)C[C@@H](c2nc(-c3ccc4ccc(-c5ccccc5)nc4c3)c3c(N)nccn32)C1 [Linsitinib (OSI-906)]	ACHN	>	10000
Cc1ccc(C(=O)Nc2cccc(C(F)(F)F)c2)cc1Nc1nc(-c2cccnc2)nc2c1cnn2C [NVP-BHG712]	ACHN	=	1900
